Assay: logP determination by HPLC (EEC Directive 79/831 Annex V.A8), reverse-phase column C 18
Format: physicochemical
readout label: logP

CCn1ncc(C(=O)c2ccc(C(F)(F)F)cc2CS(C)(=O)=O)c1OCc1cccc(F)c1 [Example 14] | logP = 3.30^a)
CCn1ncc(C(=O)c2ccc(C(F)(F)F)cc2CS(C)(=O)=O)c1OCC(=O)c1ccccc1 [Example 20] | logP = 3.01^a)
CCn1ncc(C(=O)c2ccc(C(F)(F)F)cc2CS(C)(=O)=O)c1OCc1ccc(F)cc1 [Example 12] | logP = 3.30^a)
CCOC(=O)C(C)Oc1c(C(=O)c2ccc(C(F)(F)F)cc2CS(C)(=O)=O)cnn1CC (centres unmarked) [Example 26] | logP = 3.01^a)
